Overview of reported inhibition across a group of compounds:
test_details: inhibitors of poly I:C-induced TLR3 signaling, primary screen, cell-based, poly I:C stimulus, luciferase, 10K MLSCN set (AID 602277)
settings: HEK293-TLR3 RL24 IRF3 luciferase reporter, at 10 µM, stronger effect = higher value
Please reply with the bare figure in % and do not write the unit itself.

# compound, assay_value
records = [
    ("COCCNC(=O)c1c(N)n(/N=C/c2cccs2)c2nc3ccccc3nc12", -26.9),
    ("Cc1c(/C(O)=C2/C(=O)C(=O)N(CCN3CCOCC3)C2c2cccnc2)cnn1-c1ccccc1 (centres undefined)", -9.27),
    ("CC(=O)OCC(=O)[C@@]1(OC(C)=O)[C@@H](C)C[C@H]2[C@@H]3C[C@H](F)C4=CC(=O)C=C[C@]4(C)[C@@]3(F)[C@@H](O)C[C@@]21C", 44.4),
]

Consider the additional compound presented here.
Record O=C(Nc1ccccc1C(=O)NCCCn1ccnc1)c1ccccc1 , field inhibition: 22.1

----------
test_details: DUSP6 inhibitors restoring Erk phosphorylation by chemical complementation, primary imaging in DUSP6-transfected HeLa (AID 609)
settings: HeLa MKP-3 transfected, phospho-Erk imaging KS statistic; measured here: nuclear pErk red intensity z-score; at 10 µM; stronger effect = higher value; cells stimulated with TPA for 15 min
quantity_kind: z-score
Number only, no unit.

Below are worked cases with known answers.
# compound, quantity_kind, assay_value
data = [
    ("N#CC1=C(SCC(=O)c2ccc(Br)cc2)NC2=C(C(=O)CCC2)C1c1ccco1 (configuration not stated)", "z-score", 1.14),
    ("CC1=C(c2ccc(Cl)cc2)[N+](=O)C(C)(C)N1[O-]", "z-score", 0.735),
    ("CC1(C)Cc2c(sc3ncn4nnnc4c23)CO1", "z-score", 0.925),
    ("Cc1c(C2Nc3ccccc3NC3=C2C(=O)CC(C)(C)C3)cnn1C (configuration not stated)", "z-score", -0.607),
]

Record CC(=O)Nc1n[nH]c(S(=O)(=O)Cc2ccc(Cl)cc2Cl)n1 , field z-score: -0.141

Record COc1cc(C)nc(N(C)S(=O)(=O)c2ccccc2Cl)n1 , field z-score: -0.133

Record CN1CCN(Cc2c(O)ccc3c(-c4ccccc4)cc(=O)oc23)CC1 , field z-score: 0.493

Record CCC(c1c(C)n(C)n(-c2ccccc2)c1=O)c1c(C)n(C)n(-c2ccccc2)c1=O , field z-score: -0.348

Record COc1ccc(C2CNC(=O)C2)cc1OC1CCCC1 (configuration not stated) , field z-score: 0.178

Record CCCCC(=O)O[C@]1(C(=O)CO)CC[C@H]2[C@@H]3CCC4=CC(=O)CC[C@]4(C)[C@H]3[C@@H](O)C[C@@]21C , field z-score: 0.0777

Record CCSc1nc(N)c(C#N)c(-c2ccccc2Cl)c1C#N , field z-score: 0.136

Record N#Cc1c(SCC(N)=O)nsc1SCc1ccc(Cl)cc1 , field z-score: -0.0749

Record OC[C@H]1O[C@@H](n2cnc3c(Nc4ccccc4)ncnc32)[C@H](O)[C@@H]1O , field z-score: -0.432

Record COc1ccc(OC)c(C2=Nn3c(nnc3C3CCCCC3)SC2)c1 , field z-score: -0.394

Record COc1cc(-c2nn3c(COc4ccccc4)nnc3s2)cc(OC)c1OC , field z-score: 0.000132

Record CC(=O)c1c(C(C)=O)c(C)n(NC(=O)c2ccncc2)c1C , field z-score: 0.477

----------
test_details: inhibitors of TNFa-induced NFkB p65 translocation, primary screen, imaging, HUVEC, MLSMR starter and 10KST1 sets (AID 438);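 further: compound added about 3h40 before a 20 min TNFalpha stimulation; signal is the nuclear over cytoplasmic p65 intensity ratio per well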
settings: HUVEC TNFa-induced p65 nuclear translocation; at 2 µM, stronger effect = higher value, 0% TNFa-plus-vehicle, 100% no-TNFa wells
Overview of reported inhibition across a group of compounds:
Please reply with the bare figure in % and do not write the unit itself.

# compound, inhibition (%)
data = [
    ("COc1ccc(-c2nnc3sc(-c4ccccc4OC)nn23)cc1", -8.4),
    ("Cc1coc2c(O)cc3c(c12)OC1(N2CCCCC2)C(=O)NCCCC31 (stereo unspecified)", -25.4),
    ("Cc1nc(NCCN)c(C#N)c2c1COC(C)(C)C2", -1.2),
    ("CC1(C)Cc2c(sc3[nH]c(=S)n(Cc4ccco4)c(=O)c23)CO1", -15.5),
]

Record CCOC(=O)N1CCN(/C=C(\C#N)c2nc3ccccc3s2)CC1 , field inhibition: -3.2

Record COc1ccc(CCn2c(C)ccc2C)cc1OC , field inhibition: -5.7

----------
test_details: DUSP6 inhibitors restoring Erk phosphorylation by chemical complementation, primary imaging in DUSP6-transfected HeLa (AID 609)
settings: HeLa MKP-3 transfected, phospho-Erk imaging KS statistic; measured here: cell density z-score; at 10 µM; cells stimulated with TPA for 15 min
quantity_kind: z-score
Number only, no unit.

# molecule, assay_value
measured = [
    ("Clc1ccc(-c2cn3c(n2)CCC3)cc1", -1.6),
    ("S=C(N=Nc1ccccc1)NNc1ccccc1", 0.583),
    ("CCCCC[C@H](O)/C=C/[C@H]1C=CC(=O)[C@@H]1C/C=C\\CCCC(=O)O", 1.78),
    ("O=S1CCCSC1c1cccnc1 (stereo not drawn)", 1.86),
    ("CN1C(=O)NC(NC(=O)c2ccco2)(C(F)(F)F)C1=O (stereo not drawn)", -0.0785),
    ("COC(=O)CNC(=O)c1c(C)cc(=O)oc1C", 0.439),
    ("Cc1cc(C)n(C(=O)CSc2nc3ccccc3o2)n1", 0.355),
    ("CCC(NC(=O)Nc1cc(OC)c(OC)c(OC)c1)(C(F)(F)F)C(F)(F)F", -0.0203),
    ("Clc1ccc(-c2nnc3sc(Cc4cccs4)nn23)cc1", 0.365),
    ("COc1cccc(N2CCN(C3CC(=O)N(c4cccc(Cl)c4)C3=O)CC2)c1 (stereo not drawn)", -0.898),
]

Record C[C@@H]1CCC[C@H](C)N1NC(=O)c1ccc(Cl)c(S(N)(=O)=O)c1 , field z-score: -0.0459

----------
Overview of reported nuclei count across a group of compounds:
test_details: inhibitors of mutant huntingtin aggregation, primary screen, imaging, exon1htt(103Q)mCFP cells, high-content imaging (AID 483);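 further: compound exposure lasted 3 days before fixation; percent of the per-plate median nuclei count of sample wells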
settings: exon1htt(103Q)mCFP cell line, aggregate imaging, at 2 µM; measured here: cell count, toxicity
Please reply with the bare figure in % and do not write the unit itself.

Below are worked cases with known answers.
# compound, nuclei count, %
measured = [
    ("CCNC(=O)N(C(=O)NCC)n1c(C)nnc1C", 96.4),
    ("CCN(CC)S(=O)(=O)c1cccc2c(N(C)C)cccc12", 95.3),
    ("NS(=O)(=O)c1cc2c(cc1Cl)NC(CSCc1ccccc1)=NS2(=O)=O", 103),
    ("Cn1c(=O)c2c(nc(Oc3ccc4c(c3)OCO4)n2Cc2ccc(F)cc2)n(C)c1=O", 108),
    ("CN(C1CCS(=O)(=O)C1)S(=O)(=O)c1cccc2nsnc12 (stereo unspecified)", 117),
]

Consider the additional compound presented here.
Record O=c1cc(NCc2ccccc2)nc2n1CCCS2 , field nuclei count: 94.5

----------
test_details: inhibitors of Chlamydomonas gravitaxis, primary screen, whole organism, Chlamydomonas reinhardtii, WT vs cilia-less mutant, absorbance, 96-well (AID 463189);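 further: 0% = wild type cc124 cells in DMSO and 100% = ciliumless bld1 mutant cells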
settings: OD600 absorbance, 2 days, at 10 µM, stronger effect = higher value
Overview of reported inhibition across a group of compounds:
Please reply with the bare figure in % and do not write the unit itself.

Below are worked cases with known answers.
# compound, quantity_kind, quantity_unit, assay_value
rows = [
    ("CCC1(C)Cc2c(sc3nc4n(c(=O)c23)CCS4)CO1 (configuration not stated)", "inhibition", "%", 5.08),
    ("CC(NC(=O)OC(C)(C)C)C(=O)Oc1ccc2ccc(=O)oc2c1 (configuration not stated)", "inhibition", "%", 1.2),
    ("O=S(=O)(NCc1cccnc1)c1cccc2nsnc12", "inhibition", "%", -1.56),
    ("O=C(O)CCNC(=O)c1ccccc1", "inhibition", "%", 27.8),
    ("CSCCC(CO)NC(=O)OCc1ccccc1 (configuration not stated)", "inhibition", "%", 2.98),
]

Record CCNCc1cc2cc(C)ccc2[nH]c1=O , field inhibition: 9.6

Record NC(=O)CSc1nc(N)c2c3c(sc2n1)CCCCC3 , field inhibition: 10.9

Record Cn1c(=O)n(CCc2ccccc2)c(=O)c2c1ncn2Cc1ccccc1 , field inhibition: -10.3

Record COCCn1c(N)c(C(=O)NCC2CCCO2)c2nc3ccccc3nc21 (configuration not stated) , field inhibition: 26.2

Record c1cncc(-c2nnc3sc(-c4ccco4)nn23)c1 , field inhibition: 1.41

Record CC(C)c1cc(NCCCN2CCOCC2)n2c(nc3ccccc32)c1C#N , field inhibition: 5.12

Record CCOC(=O)c1ccc(NC(=O)Cn2nnc3ccccc32)cc1 , field inhibition: 37.7
